Reference source: PubChem BioAssay (NCI)

# Tested on: HOP-62 NSCLC
# assayComment: NCI-60 one-dose screen, 48 h (100 = growth as untreated, 0 = no growth, -100 = all killed)
# assayConditions: 10 µM unless noted
The panel holds about 83,000 compounds, 20% with a hit somewhere; the sample as a whole holds those more often.
Assign growth to each entry below.
Hi! Could you send only the number? It should be in %, unit omitted.

Report growth for C=C1CCC2C3(C)COC(c4cccs4)OC3CCC2(C)C1CC(Sc1ccccc1)C1=CCOC1=O (centres undefined) please. 118

growth lookup needed for O=C(NNc1ccccc1)n1c(=O)c2ccccc2c(=O)n1-c1ccccc1 , thanks. 90.7

Which growth value belongs to N/C(=N\c1nc2ccccc2s1)NC(=O)Nc1c(Cl)cccc1Cl ? 58.7

// query growth value for entry CC1=C(C#N)C2=NNCC(c3ccccc3)=NN2C(c2ccccc2)=C1 85.6

Look at this compound and give its reported growth. CCCSc1nc(NCCc2c[nH]c3ccccc23)c(C#N)c(-c2ccc(OC)cc2)n1 64.5

If you can, please state the reported growth value of O=C(Cn1nc(-c2ccccc2)ccc1=O)N/N=C/c1ccc(N2CCOCC2)cc1 . 96

Entry C=C1CC[C@@H]2[C@]3(C)COC(c4cn[nH]c4-c4cccc(Br)c4)O[C@@H]3CC[C@@]2(C)[C@@H]1C/C=C1/C(=O)OCC1O (some centres undefined) has what growth? -58.3

Item Cn1cc(NC(=O)c2cc(NC(=O)c3ccc(C#Cc4ccccc4)cc3)cn2C)cc1C(=O)NCCCN1CCOCC1 has what recorded growth? 85.4

Which growth is reported for this compound? COc1cc(OC)cc(-c2cc3ccc(N(C)C)cc3c(=O)[nH]2)c1 53

###

# Tested on: OVCAR-5 ovarian
# assayComment: NCI-60 one-dose screen, 48 h
# assayConditions: 10 µM unless noted
Compounds without any hit were thinned out: in the full panel of roughly 83,000, 20% have a hit. Active and inactive are the calls of the source. Rule for the calls: active = growth percent below 10; inactive = the rest.
Respond with a class label; see active, inactive

// param item: O=C(c1ccc(OCCN2CCOCC2)cc1)C1[C@H](c2ccc(Cl)cc2)[C@@H](c2ccccc2)NC12C(=O)Nc1ccc(Br)cc12 (stereo partly drawn) ; yields the recorded call inactive

Any idea what this test logged for Nc1nc(-c2ccccc2)c(N=Nc2ccc(Cl)cc2[N+](=O)[O-])s1 ? inactive

Write down the call the test reported for this compound. Item: O=C(CCN1C(=O)/C(=C/c2ccc(F)cc2)SC1=S)N1CCOCC1 inactive

Each compound tested received a call. Report the one for CCOC(=O)/C=C/c1cccc2c1C(=O)NC(C)(c1cc3cc(Cl)ccc3oc1=O)N2 (stereo not drawn) . inactive

Give the logged outcome of this assay for the following compound: Cc1ccc(S(=O)(=O)c2nc(S(=O)(=O)c3ccc(C)cc3)c(N3CCN(C)CC3)s2)cc1 inactive

Dear all, I need the recorded test outcome for C#CCOc1ccc(/C=N/Nc2nc(-c3cc4cc(Br)ccc4oc3=O)cs2)cc1OC , thank you. inactive

Write down the call the test reported for this compound. Item: NS(=O)(=O)c1ccc(-n2cc(-c3cccc(NC(=O)c4cc(N5CCOCC5)cc(C(F)(F)F)c4)c3)nn2)cc1 inactive

Just curious, what result did O=c1[nH]c2ccc(Cl)cc2cc1CSc1nccc(-c2ccc(Cl)cc2)n1 get here? inactive

Dear all, I need the recorded test outcome for COc1ccc(-c2ccnc(SCc3cc4ccccc4[nH]c3=O)n2)cc1 , thank you. inactive

Status in this test for CC(C)(C)OC(=O)/C=C/c1cccc2c1C(=O)NC(C)(c1cc3cc(Cl)ccc3oc1=O)N2 (stereo not drawn) ? inactive

In this assay, the call recorded for CC(=O)Oc1ccc(/C=C/C(=O)N[C@@H](Cc2ccccc2)C(O)C(=O)NCc2ccccc2)cc1OC(C)=O (stereo partly drawn) was what? inactive

Entry N#Cc1ccc(/C=N/NC(=O)c2[nH]c3ccc(Br)cc3c2-c2ccccc2)o1 : call = ? inactive

Tell me the recorded outcome of this test for CC(=O)c1cccc(NC(=O)CCC(=O)NS(=O)(=O)c2ccc(C)cc2)c1 . inactive

In this assay, the call recorded for COc1ccc(NC(=O)Cn2c3c(sc2=O)[C@H]2[C@@H](O)[C@@H](O)[C@H](O)[C@@H]2CS3)cc1 was what? inactive

Which outcome did this test record for the compound O=C(Cn1c(/C=C/c2ccccc2)nc2ccccc2c1=O)Nc1ccccc1 ? inactive

Status in this test for CCCCCCn1c(O)c(N=Nc2nc(-c3cc4ccccc4oc3=O)cs2)c2ccccc21 ? active

Write down the call the test reported for this compound. Item: C=CC(=O)Nc1ccc(C)c(Oc2ccc(Cl)cc2)c1 inactive

Record request — test call for O=C(Nc1ccc(C(F)(F)F)cc1)Nc1ccc2oc(=O)ccc2c1 inactive

Kindly provide the recorded test outcome for the following compound: N#Cc1c(NCc2ccccc2)n[nH]c1Nc1ccccc1 inactive

Per the records of this test, what outcome belongs to O=C1Nc2cc(Cl)ccc2/C1=C/c1cccc(OCc2ccccn2)c1 ? active

Could you kindly confirm the outcome this assay logged for COc1cc2c(c(OC)c1OC)C(=O)CC(c1cccc(NC(=O)c3cc([N+](=O)[O-])ccc3Cl)c1)O2 (stereo not drawn) ? inactive

Query: recorded result category for CC1(C)CC[C@]2(C(=O)O)CC[C@]3(C)C(=CCC4[C@@]5(C)C[C@@H](O)[C@@H]6OC(c7ccccc7Br)OC[C@@]6(C)C5CC[C@]43C)C2C1 (stereo partly drawn) in this test inactive

Could you please tell me the result logged for COc1ccc(/C=C2\C(=O)Nc3ccc(Cl)cc32)cc1OCc1ccccn1 in this assay? inactive

What call does the record list for C=C1CCC2C3(C)COC(c4ccccc4)OC3CCC2(C)C1CC(NCc1ccccc1)C1=CCOC1=O (stereo not drawn) ? inactive

How did this test come out for CC(=O)Nc1ccc(-n2cnc3cc(-c4ccc(O)cc4)ccc32)cc1C(F)(F)F ? inactive

What did this assay record as the result for CC(C)c1sc(NC(=O)c2cc(NC(=O)c3cc(NC(=O)c4cscn4)cn3C)cn2C)nc1C(=O)NCCCN(C)C ? inactive

Lab log entry: COc1ccccc1/C=C/C(=O)c1ccc(OC)c(S(N)(=O)=O)c1 — outcome as called in the assay? inactive

Short answer needed: outcome of this test for O=C(Cn1nc(-c2ccccc2)ccc1=O)N/N=C/c1ccc(N2CCOCC2)cc1 ? inactive

Please indicate how the test categorized OCNc1ccc(-n2cnc3cc(-c4ccc(O)cc4)ccc32)cc1C(F)(F)F . inactive

Dear colleague, could you share the recorded outcome for O=[N+]([O-])c1ccc(/C=C/c2nc3ccccc3n3c(=S)[nH]nc23)cc1 when you have a moment? inactive

Tell me the assay call for Cc1cc(N=C2NC(=O)CS2)n[nH]1 please. inactive

Dear all, I need the recorded test outcome for N#Cc1c(-c2cccc(Cl)c2Cl)cc(-c2c[nH]c3ccccc23)[nH]c1=O , thank you. inactive

Per the records of this test, what outcome belongs to COc1cc(/C=C/C(=O)c2ccc(C)cc2)ccc1Oc1nc(Nc2ccc(F)cc2)nc(N(C)C)n1 ? inactive

What classification did O=C1CC(Sc2n[nH]c(-c3ccncc3)n2)C(=O)N1c1ccc(Br)cc1 (stereo not drawn) end up with in this test? inactive

Outcome? Cn1cc(-c2nc(N)nnc2-c2c[nH]c3ccc(Br)cc23)c2cccnc21 inactive

Dear colleague, could you share the recorded outcome for COc1c(F)ccc(C(=O)Nc2ccc3nc(NC(=O)C4CCCN(S(=O)(=O)c5cccc(Cl)c5)C4)sc3c2)c1F (stereo not drawn) when you have a moment? inactive

Query: recorded result category for COc1ccc(C(=O)/C=C/c2ccc(Cl)c(Cl)c2)cc1S(N)(=O)=O in this test inactive

Could you please tell me the result logged for NS(=O)(=O)c1ccc(-n2cc(-c3cccc(NC(=O)c4cc(Cl)cc(Cl)c4)c3)nn2)cc1 in this assay? inactive
